target.entity: ALK, AXL, FAK, KIT wt, IGF1-R, PIM1, PRK1, SRC and VEGF-R2
Construct: other: at le; fused on or other part: GST or His tag
test.name: 33PanQinase Activity Assay, kinase panel summary
settings: at least two kinases of the panel; read-out: IC50 values on at least two kinases from at least two different molecular mechanisms of tumor progression
test.readout: IC50

Consider FC(F)(F)c1ccc(-c2nnc(Sc3ncnc4[nH]c(-c5ccccc5)nc34)o2)cc1 . Its measured IC50 is < 10 µM

====

target.entity: FAK (Homo sapiens)
Construct: made in house; host or cells: Sf9 insect cells (baculovirus)
Sequence (Q05397 whole entry): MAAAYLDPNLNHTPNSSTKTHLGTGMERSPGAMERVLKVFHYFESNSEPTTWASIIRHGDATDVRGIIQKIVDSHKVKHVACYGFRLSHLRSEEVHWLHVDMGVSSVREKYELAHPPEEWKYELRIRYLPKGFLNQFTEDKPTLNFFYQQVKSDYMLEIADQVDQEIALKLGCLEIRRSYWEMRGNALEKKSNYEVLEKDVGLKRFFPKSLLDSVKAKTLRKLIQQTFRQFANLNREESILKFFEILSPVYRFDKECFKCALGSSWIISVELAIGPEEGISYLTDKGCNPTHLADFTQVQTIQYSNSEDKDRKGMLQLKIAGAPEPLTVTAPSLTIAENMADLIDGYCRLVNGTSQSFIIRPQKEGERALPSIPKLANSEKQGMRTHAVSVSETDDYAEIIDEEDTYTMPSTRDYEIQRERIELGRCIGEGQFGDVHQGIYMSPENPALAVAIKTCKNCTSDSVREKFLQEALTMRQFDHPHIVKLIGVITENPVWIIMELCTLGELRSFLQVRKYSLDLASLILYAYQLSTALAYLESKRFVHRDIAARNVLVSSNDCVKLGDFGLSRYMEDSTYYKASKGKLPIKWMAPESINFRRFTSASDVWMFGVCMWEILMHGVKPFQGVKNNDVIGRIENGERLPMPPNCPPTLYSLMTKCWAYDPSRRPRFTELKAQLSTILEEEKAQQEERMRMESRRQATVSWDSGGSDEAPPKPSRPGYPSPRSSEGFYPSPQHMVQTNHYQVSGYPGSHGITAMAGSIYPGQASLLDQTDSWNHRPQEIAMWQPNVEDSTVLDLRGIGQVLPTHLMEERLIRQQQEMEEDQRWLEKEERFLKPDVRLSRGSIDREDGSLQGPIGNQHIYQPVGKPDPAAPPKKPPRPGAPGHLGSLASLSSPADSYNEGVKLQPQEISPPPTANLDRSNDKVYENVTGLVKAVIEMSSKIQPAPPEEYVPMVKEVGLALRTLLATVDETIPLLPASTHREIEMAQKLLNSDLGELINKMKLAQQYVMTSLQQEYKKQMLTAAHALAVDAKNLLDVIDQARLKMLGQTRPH
test.name: 33PanQinase Activity Assay, FAK
Type: biochemical
settings: recombinant human protein kinase, 1 μM [γ-33P]-ATP, 30° C. 80 minutes
Could you please report measured pIC50 for the items listed next?
On this scale, pIC50 is minus log10 of a concentration expressed in M (mol/L).

Reported pIC50 of O=C1CCCCCN1Cc1nnc(Sc2ncnc3cc(-c4ccc(Cl)cc4)sc23)o1 : 5.05

Value of pIC50 reported for the compound COc1ccc(-c2cc3ncnc(Sc4nnc(-c5ccc(C(F)(F)F)cc5)o4)c3s2)cc1 is 5.77

Sample c1ccc(-c2nc3c(Sc4nnc(-c5ccco5)o4)ncnc3[nH]2)cc1 ; pIC50 observed: 4.64

The recorded pIC50 for FC(F)(F)c1ccc(-c2nnc(Sc3ncnc4[nH]c(-c5ccccc5)nc34)o2)cc1 is 6.03

// pIC50 lookup, compound = Fc1ccc(-c2cc3ncnc(Sc4nnc(CN5CCCC5)o4)c3s2)cc1 , result: 4.82

So, Fc1ccc(-c2cc3ncnc(Sc4nnc(-c5ccc6c(c5)OCO6)o4)c3s2)cc1 ? Its pIC50 was 5.45

Quick note, pIC50 for COc1ccc(-c2cc3ncnc(Sc4nnc(-c5ccccc5)o4)c3s2)cc1 landed at 6.08

Lookup result for c1ccc(Cc2nnc(Sc3ncnc4[nH]c(-c5ccccc5)nc34)o2)cc1 ; measured pIC50: 4.37

GET /value?item= COc1ccc(-c2cc3ncnc(Sc4nnnn4C)c3s2)cc1 &field=pIC50 returns 5.22

The recorded pIC50 for CC(C)(C)c1nnc(Sc2ncnc3cc(-c4ccc(F)cc4)sc23)o1 is 5.32

pIC50 reading for COc1ccc(-c2cc3ncnc(Sc4n[nH]/c(=N\C5CC5)s4)c3s2)cc1 : 4.98

Query COc1cccc(Cc2nnc(Sc3ncnc4cc(-c5ccc(F)cc5)sc34)o2)c1 yields pIC50 of 5.89

Form: compound = COc1ccc(-c2cc3ncnc(Sc4nnc(-c5ccc(Cl)cc5Cl)o4)c3s2)cc1 ; pIC50 = 5.82

So for Cn1nnnc1Sc1ncnc2cc(-c3ccc(F)cc3)sc12 , the logged pIC50 turned out to be 4.87

Fc1ccc(-c2cc3ncnc(Sc4ccccn4)c3s2)cc1 has a reported pIC50 of 5.04

Entry O=S1(=O)CCC(Cc2nnc(Sc3ncnc4cc(-c5ccc(F)cc5)sc34)o2)C1 (stereo not drawn) — recorded pIC50 = 5.24

Lab note: measured pIC50 of COc1ccc(-c2cc3ncnc(Sc4nnnn4C4CC4)c3s2)cc1 was 5.10
